B1: SNAP91 (parent)
chain: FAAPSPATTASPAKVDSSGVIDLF

# Variants of: B1
# assay details: protein stability index of a GFP-peptide fusion (GPS, HEK-293T) (PSI 1-6); higher = more stable;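 further: lentivirally expressed fusions sorted by FACS into six bins by GFP to DsRed ratio, PSI derived from sequencing read proportions per bin multiplied by bin number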
# particulars: c terminus: a fixed tail appended
parameter measured: protein stability index
Form: value (number only, do not type unit).

Look up protein stability index of "FAAPSPATTASPAKVDSSEVIDLF" and report it.
2.84

Look up protein stability index of "FYAPSPATTASPAKVDSSGVIDLF" and report it.
2.09

Look up protein stability index of "FAAPSPATTASPAKVDSSGVIQLF" and report it.
2.26

Look up protein stability index of "FAAPSPATTASPAKVDYSGVIDLF" and report it.
2.7

Look up protein stability index of "FAAPSPATTASPAKVDSSGVIDLP" and report it.
4.31

Look up protein stability index of "FAAPSPATTASPAKVDSSGVIDLE" and report it.
4.51

Look up protein stability index of "FAAPSPATTASPAKVDSSGVIDAF" and report it.
3.78

Look up protein stability index of "FAAPSPATTVSPAKVDSSGVIDLF" and report it.
2.94

Look up protein stability index of "FAAPSPATTASPAKLDSSGVIDLF" and report it.
2.23

Look up protein stability index of "FAAPSPATTASPAKVDSSGVWDLF" and report it.
1.88

Look up protein stability index of "FAAPSPATTASPCKVDSSGVIDLF" and report it.
2.29

Look up protein stability index of "FAAPSYATTASPAKVDSSGVIDLF" and report it.
1.7

Look up protein stability index of "FAAPSPATTANPAKVDSSGVIDLF" and report it.
2.38

Look up protein stability index of "FAAPSPATTASPAKQDSSGVIDLF" and report it.
2.04

Look up protein stability index of "FAAPSPTTTASPAKVDSSGVIDLF" and report it.
2.11

Look up protein stability index of "FAAPSMATTASPAKVDSSGVIDLF" and report it.
2.44

Look up protein stability index of "FAAPSPATTASPAKVDSRGVIDLF" and report it.
2.11

Look up protein stability index of "FAAPSRATTASPAKVDSSGVIDLF" and report it.
1.95

Look up protein stability index of "FAAPSPATTASPAKVDSSCVIDLF" and report it.
1.83

Look up protein stability index of "FAAPSPATTASFAKVDSSGVIDLF" and report it.
1.8

Look up protein stability index of "FAAPWPATTASPAKVDSSGVIDLF" and report it.
2.62

Look up protein stability index of "FAAPSPATTASPAKVDSSGIIDLF" and report it.
2.25
